# System: Proteus vulgaris
# test_summary: Antimicrobial activity against Proteus vulgaris after 18 to 20 hr by agar dilution method
# Type: functional
Known MIC of a selection of compounds
Field: numeric (µg/mL). Do not append units.

Consider the reported MIC for these compounds:
{"columns": ["compound", "measurement_units", "MIC"],
 "data": [
  ["COc1cc(Cc2cnc(/N=C3\\C(=O)N(CN4CCN(c5ccc(F)cc5)CC4)c4ccc(Cl)cc43)nc2N)cc(OC)c1OC", "µg/mL", 625],
  ["COc1c(N2CCNC(C)C2)c(F)cc2c(=O)c(C(=O)O)cn(C3CC3)c12 (centres undefined)", "µg/mL", 0.02],
  ["COc1cc(Cc2cnc(/N=C3\\C(=O)N(CN4CCN(c5ccccn5)CC4)c4ccc(Cl)cc43)nc2N)cc(OC)c1OC", "µg/mL", 625]
]}

Okay, now this compound:
Lab note: O=C(O)c1cn(C2CC2)c2cc(N3CCNCC3)c(F)cc2c1=O gave MIC of 0.04

* * *

Known inhibition (INH) of a selection of compounds
# Test system: Hepatitis C virus
# test_summary: Antiviral activity against Hepatitis C virus BM4-5 infected in Huh7 cells assessed as inhibition of viral RNA replication by phosphor screening method
# Format: functional, Hepacivirus hominis, Huh-7
Field: numeric (%). Do not append units.

Consider the reported inhibition (INH) for these compounds:
{"columns": ["compound", "assay_target", "inhibition (INH) [%]"],
 "data": [
  ["COc1cc(Cc2cnc(/N=C3\\C(=O)N(CN(Cc4ccccc4)Cc4ccccc4)c4ccc(Cl)cc43)nc2N)cc(OC)c1OC", "Hepatitis C virus", 81],
  ["COc1cc(Cc2cnc(/N=C3\\C(=O)N(CN4CCC(C)CC4)c4ccc(Cl)cc43)nc2N)cc(OC)c1OC", "Hepatitis C virus", 81],
  ["CCn1cc(C(=O)O)c(=O)c2cc(F)c(N3CCN(CN4C(=O)/C(=N\\c5ncc(Cc6cc(OC)c(OC)c(OC)c6)c(N)n5)c5cc(Cl)ccc54)C(C)C3)c(F)c21 (stereo not given)", "Hepatitis C virus", 60],
  ["COc1cc(Cc2cnc(/N=C3\\C(=O)N(CN4CCN(c5ccc(F)cc5)CC4)c4ccc(Cl)cc43)nc2N)cc(OC)c1OC", "Hepatitis C virus", 80],
  ["COc1cc(Cc2cnc(/N=C3\\C(=O)N(CN4CCN(c5ccc(Cl)cc5)CC4)c4ccc(Cl)cc43)nc2N)cc(OC)c1OC", "Hepatitis C virus", 99],
  ["COc1cc(Cc2cnc(/N=C3\\C(=O)N(CN4CCN(c5cccc(Cl)c5)CC4)c4ccc(Cl)cc43)nc2N)cc(OC)c1OC", "Hepatitis C virus", 96],
  ["COc1cc(Cc2cnc(/N=C3\\C(=O)N(CN4CCN(C)CC4)c4ccc(Cl)cc43)nc2N)cc(OC)c1OC", "Hepatitis C virus", 71],
  ["COc1cc(Cc2cnc(/N=C3\\C(=O)N(CN4CCN(c5ccccn5)CC4)c4ccc(Cl)cc43)nc2N)cc(OC)c1OC", "Hepatitis C virus", 89],
  ["COc1cc(Cc2cnc(/N=C3\\C(=O)N(CN4CCN(c5cc6c(cc5F)c(=O)c(C(=O)O)cn6C5CC5)CC4)c4ccc(Cl)cc43)nc2N)cc(OC)c1OC", "Hepatitis C virus", 86],
  ["COc1cc(Cc2cnc(/N=C3\\C(=O)N(CN4CCCCC4C)c4ccc(Cl)cc43)nc2N)cc(OC)c1OC (stereo not given)", "Hepatitis C virus", 89]
]}

Lab note: COc1cc(Cc2cnc(/N=C3\C(=O)N(CN4CCN(C(=O)c5ccc(F)cc5)CC4)c4ccc(Cl)cc43)nc2N)cc(OC)c1OC gave inhibition (INH) of 91

Lab note: COc1cccc(N2CCN(CN3C(=O)/C(=N\c4ncc(Cc5cc(OC)c(OC)c(OC)c5)c(N)n4)c4cc(Cl)ccc43)CC2)c1 gave inhibition (INH) of 100

Lab note: CCCCN(CCCC)CN1C(=O)/C(=N\c2ncc(Cc3cc(OC)c(OC)c(OC)c3)c(N)n2)c2cc(Cl)ccc21 gave inhibition (INH) of 84

Lab note: COc1cc(Cc2cnc(/N=C3\C(=O)N(CN4CCN(Cc5ccccc5)CC4)c4ccc(Cl)cc43)nc2N)cc(OC)c1OC gave inhibition (INH) of 66

Lab note: CCN(CC)CN1C(=O)/C(=N\c2ncc(Cc3cc(OC)c(OC)c(OC)c3)c(N)n2)c2cc(Cl)ccc21 gave inhibition (INH) of 67
